Values were extracted from patent US11013696B2.

# assay.info: siRNA encapsulation in lipid nanoparticles (SYBR Gold)
# Format: physicochemical
# measurement.context: Table 2; FVII siRNA in LNP with the cationic lipid

compound: CCCCCCCCCCCCC(CCOC(=O)CCCC(CCCCCCC)CCCCCCC)OC(=O)OCCCN(C)C (centres unmarked)
% encapsulation siRNA FVII, %: 86.1

compound: CCCCCCCCCCCCC(CCOC(=O)CCCCC=C(CCCCCC)CCCCCC)OC(=O)OCCCN(C)C (centres unmarked)
% encapsulation siRNA FVII, %: 89.8

compound: CCCCCC(CCCCC)CCCCCCCC(=O)OCCC(CCCCCCCCCCO)OC(=O)OCCCN(C)C (centres unmarked)
% encapsulation siRNA FVII, %: 39.5

compound: CCCCCCCC(=O)OCCCCCCCCCCC(CCOC(=O)CCCCCCCC(CCCCC)CCCCC)OC(=O)OCCCN(C)C (centres unmarked)
% encapsulation siRNA FVII, %: 83.4

compound: CCCCC/C=C\C/C=C\CCCCCCCCC(CCOC(=O)CCCCCCC/C=C\C/C=C\CCCCC)OC(=O)CCN(C)C (centres unmarked)
% encapsulation siRNA FVII, %: 88.4

compound: CCCCC/C=C\C/C=C\CCCCCCCC(=O)OCCC(CCCCCCCCCCCC)OC(=O)OCCCN(C)CC (centres unmarked)
% encapsulation siRNA FVII, %: 86.4

compound: CCCCCCCCCCCCC(CCOC(=O)CCC(OCC(CCC)CCC)OCC(CCC)CCC)OC(=O)OCCCN(CC)CC (centres unmarked)
% encapsulation siRNA FVII, %: 90.3

compound: CCCCC/C=C\C/C=C\CCCCCCCCC(CCOC(=O)CCCC(CCCCCCC)CCCCCCC)OC(=O)CCCN(C)C (centres unmarked)
% encapsulation siRNA FVII, %: 89.2

----------
Measured % Encap. by item
# assay.info: Percent encapsulation of mRNA in lipid nanoparticles (Quant-iT Ribogreen)
# Format: physicochemical
# measurement.context: FLuc mRNA
value.type: % Encap. (%)

compound: CCCCCCCCCCCCC(CCOC(=O)CCCCC(OCCCCCCCC)OCCCCCCCC)OC(=O)OCCCN(CC)CC (stereo not shown) [Example 16]
reported: 96.8

compound: CCCCC/C=C\C/C=C\CCCCCCCC(=O)OCC(COC(=O)CCCCCCC/C=C\C/C=C\CCCCC)OC(=O)CCC(CCCCCCCCCCCC)OC(=O)OCCCN(C)C (stereo not shown) [Example 80]
reported: 85.3

compound: CCCCCCCCCCCCC(CCOC(=O)CCCCC(COC(=O)CCCCCCC)COC(=O)CCCCCCC)OC(=O)OCCCN(CC)CC (stereo not shown) [Example 1]
reported: 94.7

compound: CCCCC/C=C\C/C=C\CCCCCCCCC(CCC(=O)OC(COC(=O)CCCCCCC)COC(=O)CCCCCCC)OC(=O)OCCCN(C)C (stereo not shown) [Example 94]
reported: 93.7

----------
# assay.info: Particle size and polydispersity by DLS of RSV-F replicon LNPs
# Assay type: physicochemical
# measurement.context: RSV-F replicon LNP prepared for 2nd IM
Measured Size by item

molecule: CCCCC/C=C\C/C=C\CCCCCCCC(=O)OCC(COC(=O)CCCCCCC/C=C\C/C=C\CCCCC)COC(=O)CCC(CCCCCCCCCCCC)OC(=O)OCCCN(C)C (stereo not shown)
Size / nm: 135.7
--
molecule: CCCCC/C=C\C/C=C\CCCCCCCCC(CCCOC(=O)CCC(=O)OC(CCCCCCCC)CCCCCCCC)OC(=O)OCCCN(C)C (stereo not shown)
Size / nm: 137.1
--
molecule: CCCCCCCCCC(=O)OCCC(CC(CCCCCCCC)CCCCCCCC)OC(=O)OCCCN(C)C (stereo not shown)
Size / nm: 141.7
--
molecule: CCCCC/C=C\C/C=C\CCCCCCCC(=O)OCC(COC(=O)CCCCCCC/C=C\C/C=C\CCCCC)OC(=O)C(CCCCCCCCCCCC)OC(=O)OCCCN(C)C (stereo not shown)
Size / nm: 130.9
